Each recorded value in this set is attributed to ChEMBL document CHEMBL1137438.

- ASSAY SUMMARY: AUC in rat at 10 mg/kg, po after 0 to 6 hrs
- Assay type: ADME, organism-based
- Design: time < 6 hr, dose 10 mg/kg, route oral
- CONDITION NOTES: plasma
RECORDED ENDPOINT: AUC at 6 h (ng·h/mL)
Report the value in ng·h/mL with no unit label.

| COMPOUND | UNITS SYMBOL | MEASURED RESULT |
| --- | --- | --- |
| CC[C@@H]1CCC[C@H](C2(OC(=O)N3CCN(CCO)[C@@H](C)C3)CC2)N1S(=O)(=O)c1ccc(Cl)cc1 (racemic) | ng·h/mL | 1870 |

Please find the next compound below.
Exercise: Hello, please tell me recorded AUC at 6 h for this one: CC[C@@H]1CCC[C@H](C2(OC(=O)N3CC4CCC(C3)N4CCO)CC2)N1S(=O)(=O)c1ccc(F)c(F)c1 (mixture of isomers)
Solution: 1330
